Source of measurements: ChEMBL document CHEMBL1144244

Entries annotated with measured MIC
System: Haemophilus influenzae
Assay: Antibacterial activity against Haemophilus influenzae IID983 by agar dilution method
Assay type: functional
MEASURED_QUANTITY: MIC

{"MOLECULE": "CC1=C(O)[C@@](C)(/C=C2/C=CCCCC2)SC1=O", "SYSTEM_NAME": "Haemophilus influenzae", "ASSAY_RESULT": "> 64 µg/mL"}
{"MOLECULE": "C=C/C(C)=C/[C@@]1(C)SC(=O)C=C1O", "SYSTEM_NAME": "Haemophilus influenzae", "ASSAY_RESULT": "32 µg/mL"}
{"MOLECULE": "CC1=C(O)[C@@](C)(/C=C2/C=CCCC2)SC1=O", "SYSTEM_NAME": "Haemophilus influenzae", "ASSAY_RESULT": "> 64 µg/mL"}
{"MOLECULE": "C[C@]1(/C=C2/C=CCCCC2)SC(=O)C=C1O", "SYSTEM_NAME": "Haemophilus influenzae", "ASSAY_RESULT": "> 64 µg/mL"}
{"MOLECULE": "C[C@@]1(/C=C2/C=C\\CCCCC2)SC(=O)C=C1O", "SYSTEM_NAME": "Haemophilus influenzae", "ASSAY_RESULT": "> 128 µg/mL"}
{"MOLECULE": "C[C@@]1(/C=C2/C=CCCC2)SC(=O)C=C1O", "SYSTEM_NAME": "Haemophilus influenzae", "ASSAY_RESULT": "> 64 µg/mL"}
{"MOLECULE": "CC1=C(O)[C@@](C)(/C=C2/C=C\\CCCCC2)SC1=O", "SYSTEM_NAME": "Haemophilus influenzae", "ASSAY_RESULT": "> 128 µg/mL"}
{"MOLECULE": "C=C/C(C)=C/[C@@]1(C)SC(=O)C(C)=C1O [THIOLACTOMYCIN]", "SYSTEM_NAME": "Haemophilus influenzae", "ASSAY_RESULT": "2 µg/mL"}
{"MOLECULE": "CC1=C(O)[C@](C)(/C=C2/C=CCCCC2)SC1=O", "SYSTEM_NAME": "Haemophilus influenzae", "ASSAY_RESULT": "> 64 µg/mL"}
{"MOLECULE": "C[C@@]1(/C=C2/C=CCCCC2)SC(=O)C=C1O", "SYSTEM_NAME": "Haemophilus influenzae", "ASSAY_RESULT": "> 64 µg/mL"}
{"MOLECULE": "C[C@]1(/C=C2/C=C\\CCCCC2)SC(=O)C=C1O", "SYSTEM_NAME": "Haemophilus influenzae", "ASSAY_RESULT": "> 128 µg/mL"}
{"MOLECULE": "O=C(O)c1cn(C2CC2)c2cc(N3CCNCC3)c(F)cc2c1=O [CIPROFLOXACIN]", "SYSTEM_NAME": "Haemophilus influenzae", "ASSAY_RESULT": "0.008 µg/mL"}
{"MOLECULE": "CC1=C(O)[C@](C)(/C=C2/C=CCCC2)SC1=O", "SYSTEM_NAME": "Haemophilus influenzae", "ASSAY_RESULT": "> 64 µg/mL"}
{"MOLECULE": "CC1=C(O)[C@](C)(/C=C2/C=C\\CCCCC2)SC1=O", "SYSTEM_NAME": "Haemophilus influenzae", "ASSAY_RESULT": "> 128 µg/mL"}
{"MOLECULE": "C[C@]1(/C=C2/C=CCCC2)SC(=O)C=C1O", "SYSTEM_NAME": "Haemophilus influenzae", "ASSAY_RESULT": "> 64 µg/mL"}
